// GI50 lookup, one value per entry
- Test system: ACHN renal
- method.notes: NCI tumour cell line growth inhibition, 48 h

Guide cases for GI50, answers given:
- compound: "CC(=O)[CH-]C(=O)c1ccccc1.CC(=O)[CH-]C(=O)c1ccccc1.CC1(C)C2CCC1(C)C([O-])C2.CC1(C)C2CCC1(C)C([O-])C2.[Ti+4]"
  tested.on: "ACHN renal"
  GI50: "54400 nM"
- compound: "Cc1ccc(-n2c3c(c4c(CN(C)C)c(O)ccc42)CCc2ccccc2C3=O)cc1"
  tested.on: "ACHN renal"
  GI50: "16300 nM"
- compound: "C/C(=N/Nc1nc2ccccc2n1C)c1ccccn1"
  tested.on: "ACHN renal"
  GI50: "13.6 nM"
- compound: "Cn1c(/C=C(\\C#N)c2ccccc2)nc2c(N3CCOCC3)nc(Cl)nc21"
  tested.on: "ACHN renal"
  GI50: "458 nM"
- compound: "CCOc1ccc(-c2nonc2NC(=O)c2cccc(C)c2)cc1OCC"
  tested.on: "ACHN renal"
  GI50: "> 100000 nM"

Field GI50 (system: ACHN renal) for entry CC1(C)N=C(N)N=C(N)N1c1ccc(OCCCCOc2ccc(S(=O)(=O)F)cc2)c(Cl)c1 = 1680 nM

Response field GI50 (ACHN renal) for item CCc1c(C#N)c(S[C@@H](C(N)=O)c2ccccc2)nc(N(C)C)c1C#N : 3900 nM

For the compound COC1CC2CCC(C)C(O)(O2)C(=O)C(=O)N2CCCCC2C(=O)OC(C(C)CC2CCC(O)C(OC)C2)CC(=O)C(C)C=C(C)C(O)C(OC)C(=O)C(C)CC(C)/C=C/C=C/C=C1C (stereo not drawn) , the measured GI50 on ACHN renal was 2550 nM

====

- Tested on: NCI/ADR-RES ovarian
- method.notes: NCI tumour cell line growth inhibition, 48 h
Overview of recorded TGI for various compounds
API: value field is a number in µM; no unit string.

Completed entries (count: 3):
- compound: "O=C1c2cc3c(cc2-c2c1c1ccc(Cl)cc1c(=O)n2CCCNCCO)OCO3"
  unit.descriptor: "µM"
  TGI: 1.9
- compound: "O=C1/C(=C/c2ccccc2)CN(C(=O)c2cccnc2)C/C1=C\\c1ccccc1"
  unit.descriptor: "µM"
  TGI: 21.2
- compound: "CC(C)(C)c1nn(-c2ccccc2)c2c1C(=O)CSC(c1ccccc1Cl)N2 (stereo unspecified)"
  unit.descriptor: "µM"
  TGI: 7.54

Now take the following compound into account.
Input Cn1c(/C=C(\C#N)c2ccccc2)nc2c(N3CCOCC3)nc(Cl)nc21 . Output TGI: 7.23

====

Entries annotated with measured TGI
- Test system: PC-3 prostate
- method.notes: NCI tumour cell line growth inhibition, 48 h
# number only, unit µM dropped from output

Record excerpt, results attached:
- compound: "C=CC(c1ccccc1)[C@@]1(OC(C)=O)C(=O)C(=O)OC1C1COC(C)(C)O1 (stereo not given in full)"
  unit.descriptor: "µM"
  TGI: 24.3
- compound: "O=C(CCc1ccccc1)ON1C(=S)NC(c2ccccc2)(c2ccccc2)C1=S"
  unit.descriptor: "µM"
  TGI: 63.8
- compound: "O=C1C(Cl)=C(Nc2cccc(Cl)c2)C(=O)N1Cc1ccccc1Cl"
  unit.descriptor: "µM"
  TGI: 21.3

The recorded TGI for entry O=C1c2ccccc2NC(=O)C2C1C(c1ccccc1)CC2(O)c1ccccc1 (stereo not given) equals 74.3
